Test system: NCI-H226
Assay Method Text: NCI tumour cell line growth inhibition, 48 h
Calls of active or inactive are those of the source. No stated cut-off is given here; in the data, active = GI50 up to about 1.1 µM and inactive = higher.

Molecule	Study System	GI50
COc1ccc(CCn2cnc3ccccc32)cc1	NCI-H226	> 100 µM (inactive)
COc1ccc(NC2=CC(=O)C(=O)c3ccccc32)nn1	NCI-H226	2.31 µM (inactive)
C[Si](C)(OCCS(=O)(=O)O)C1S(=O)(=O)OCCOS1(=O)=O	NCI-H226	64.9 µM (inactive)
COCCOCOC(CCCCO)c1cc(C)c(O[Si](C)(C)C(C)(C)C)c(C)c1 (centres undefined)	NCI-H226	2.41 µM (inactive)

* * *

Tested on: IGROV-1
Assay Method Text: NCI tumour cell line growth inhibition, 48 h
Calls of active or inactive are those of the source. Rule as the data show it: active = GI50 up to about 1.1 µM and inactive = higher.
Measured GI50 by item

Molecule	GI50
CCCN(CCC)C(=S)N/N=C/c1cccc(C)n1	0.0733 µM (active)
CC1C2=CC=C(O2)C(C)(C)C2=CC=C(O2)C(C)(C)C2=CC=C(O2)C(C)(C)C2=CC=C1O2	> 100 µM (inactive)
Cc1ccc(/N=N/N(C)C(=O)C(C)N)cc1 (stereo not given)	> 100 µM (inactive)
CCOP(=O)(OCC)C1(O)CC(n2cc(C)c(=O)[nH]c2=O)OC1CO (stereo not given)	> 100 µM (inactive)
Clc1ccc(/C=N/C23CC4CC(CC(C4)C2)C3)cc1Cl	> 10 µM (inactive)

* * *

Measured GI50 by item
System: A498
Assay Method Text: NCI tumour cell line growth inhibition, 48 h
Calls of active or inactive are those of the source. No stated cut-off is given here; in the data, active = GI50 up to about 1.1 µM and inactive = higher.
Measurement Kind: GI50

Compound	Study System	Measurement Kind	Measured Value
CC(C)(C)C=C=C(C(C)(C)C)P(=O)(O)O	A498	GI50	> 100 µM (inactive)
CC1(C)C(C(=O)OC(C#N)c2cccc(OCC(=O)OCc3ccccc3)c2)C1(C)C (stereo unspecified)	A498	GI50	> 100 µM (inactive)
COc1ccc(/C=C\c2cc(OC)c3c(c2)OCO3)c(O)c1O	A498	GI50	8.3 µM (inactive)
COC(=O)c1nc(-c2ccc3c(n2)C(=O)C(=N)C(OC)=C3O)c(N)c(-c2ccc(OC)c(OC)c2O)c1C	A498	GI50	1.61 µM (inactive)
C/C=C(\C)C(=O)O[C@@H]1CC(C)(C)CC2C3=CCC4[C@]56CC[C@](O)(OC5)C(C)(C)C6CC[C@@]4(C)C3(C)CC[C@]21C(=O)O (stereo partly specified)	A498	GI50	> 100 µM (inactive)
CCOC(=O)/C=C/C1OC(C)(C)OC1/C=C/C(=O)OCC (stereo unspecified)	A498	GI50	42 µM (inactive)
COc1ccc(C23OCC(Cc4cc(OC)c(OC)cc42)C3COC(C)=O)cc1OC (stereo unspecified)	A498	GI50	> 100 µM (inactive)
CN(C)CCNC(=O)c1cccc2cc3c(Cl)cccc3nc12	A498	GI50	1.35 µM (inactive)
CCC1c2[nH]c3ccccc3c2C[C@H]2C(=O)NC(CCCCNC(=O)OC(C)(C)C)C(=O)N12 (stereo partly specified)	A498	GI50	52.8 µM (inactive)
Cc1cn(C2CC(N)C(CN)O2)c(=O)[nH]c1=O (stereo unspecified)	A498	GI50	> 100 µM (inactive)
Clc1ccc(/C=N/C23CC4CC(CC(C4)C2)C3)cc1Cl	A498	GI50	> 10 µM (inactive)
